assay: Suramin plasma pharmacokinetics in three-arm, randomized, double blind, placebo-controlled trial, intravenous infusion; format: in vivo, human; settings: male, human, plasma, intravenous; 10 mg low dose level, inferred from lack of accumulation
measure: half-life

• Cc1ccc(C(=O)Nc2ccc(S(=O)(=O)O)c3cc(S(=O)(=O)O)cc(S(=O)(=O)O)c23)cc1NC(=O)c1cccc(NC(=O)Nc2cccc(C(=O)Nc3cc(C(=O)Nc4ccc(S(=O)(=O)O)c5cc(S(=O)(=O)O)cc(S(=O)(=O)O)c45)ccc3C)c2)c1 = < 28 days

---

test: Suramin plasma pharmacokinetics in three-arm, randomized, double blind, placebo-controlled trial, intravenous infusion; type: in vivo, human; details: male, human, plasma; Table 3C, 20 mg dose group, IV, children, mean; read-out: Cmax
measure: Cmax (µg/mL)

* Cc1ccc(C(=O)Nc2ccc(S(=O)(=O)O)c3cc(S(=O)(=O)O)cc(S(=O)(=O)O)c23)cc1NC(=O)c1cccc(NC(=O)Nc2cccc(C(=O)Nc3cc(C(=O)Nc4ccc(S(=O)(=O)O)c5cc(S(=O)(=O)O)cc(S(=O)(=O)O)c45)ccc3C)c2)c1 [suramin] | 365

---

experiment: Suramin plasma pharmacokinetics in three-arm, randomized, double blind, placebo-controlled trial, intravenous infusion; format: in vivo, human; conditions: male, human, plasma; Table 7, 10 mg/kg Dose, n = 13, IV, mean; read-out: Cmin, Visit 4
measure: concentration at 28 day (ng/mL)

• Cc1ccc(C(=O)Nc2ccc(S(=O)(=O)O)c3cc(S(=O)(=O)O)cc(S(=O)(=O)O)c23)cc1NC(=O)c1cccc(NC(=O)Nc2cccc(C(=O)Nc3cc(C(=O)Nc4ccc(S(=O)(=O)O)c5cc(S(=O)(=O)O)cc(S(=O)(=O)O)c45)ccc3C)c2)c1 = 4400

---

test: Suramin plasma pharmacokinetics in three-arm, randomized, double blind, placebo-controlled trial, intravenous infusion; type: in vivo, human; conditions: male, human, plasma; Table 7, 20 mg/kg Dose, n = 14, IV, mean; read-out: Cmin, Visit 4
measure: concentration at 28 day (ng/mL)

- Cc1ccc(C(=O)Nc2ccc(S(=O)(=O)O)c3cc(S(=O)(=O)O)cc(S(=O)(=O)O)c23)cc1NC(=O)c1cccc(NC(=O)Nc2cccc(C(=O)Nc3cc(C(=O)Nc4ccc(S(=O)(=O)O)c5cc(S(=O)(=O)O)cc(S(=O)(=O)O)c45)ccc3C)c2)c1: 10900

---

test: Suramin plasma pharmacokinetics in three-arm, randomized, double blind, placebo-controlled trial, intravenous infusion; type: in vivo, human; settings: male, human, plasma, intravenous; 20 mg high dose level, inferred from accumulation
measure: half-life

- Cc1ccc(C(=O)Nc2ccc(S(=O)(=O)O)c3cc(S(=O)(=O)O)cc(S(=O)(=O)O)c23)cc1NC(=O)c1cccc(NC(=O)Nc2cccc(C(=O)Nc3cc(C(=O)Nc4ccc(S(=O)(=O)O)c5cc(S(=O)(=O)O)cc(S(=O)(=O)O)c45)ccc3C)c2)c1: > 28 days

---

experiment: Suramin plasma pharmacokinetics in three-arm, randomized, double blind, placebo-controlled trial, intravenous infusion; format: in vivo, human; settings: male, human, plasma; Table 3A, 10 mg dose group, IV, children, mean; read-out: Cmax
measure: Cmax (µg/mL)

• Cc1ccc(C(=O)Nc2ccc(S(=O)(=O)O)c3cc(S(=O)(=O)O)cc(S(=O)(=O)O)c23)cc1NC(=O)c1cccc(NC(=O)Nc2cccc(C(=O)Nc3cc(C(=O)Nc4ccc(S(=O)(=O)O)c5cc(S(=O)(=O)O)cc(S(=O)(=O)O)c45)ccc3C)c2)c1 = 244
